measured-property: pIC50
Scale note: pIC50 = -log10(concentration in M).

Provide value of pIC50 for this record tested with UniProt:A0A3Q1MT31: Cn1c(N2CCOC(c3ccc(F)cc3Br)C2)nc(-c2ccncc2)cc1=O (stereo not drawn) [B100]
Sequence (A0A3Q1MT31 1-419): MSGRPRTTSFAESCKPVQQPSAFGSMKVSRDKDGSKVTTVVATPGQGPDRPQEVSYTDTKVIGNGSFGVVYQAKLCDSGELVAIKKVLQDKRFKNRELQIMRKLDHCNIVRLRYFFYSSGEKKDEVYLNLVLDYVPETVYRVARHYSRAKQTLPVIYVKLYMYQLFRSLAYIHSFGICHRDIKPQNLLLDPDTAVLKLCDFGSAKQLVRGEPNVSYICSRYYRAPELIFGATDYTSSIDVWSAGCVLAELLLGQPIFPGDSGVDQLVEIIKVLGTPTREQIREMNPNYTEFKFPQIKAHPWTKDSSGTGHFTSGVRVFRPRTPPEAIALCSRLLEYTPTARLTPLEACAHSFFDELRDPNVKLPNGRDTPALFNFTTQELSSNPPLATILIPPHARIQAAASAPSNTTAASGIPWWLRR
8.33

Please provide the recorded pIC50 for Cn1c(N2CCCC(C(=O)Nc3ccccc3)C2)nc(-c2ccncc2)cc1=O (stereo not drawn) [C067] , tested on UniProt:A0A3Q1MT31.
7.14

Fill in the recorded pIC50 for this compound, with UniProt:A0A3Q1MT31 as test system: COc1ccccc1[C@H]1CN(c2nc(-c3ccncc3)cc(=O)n2C)CCO1 [B085]
8.85

# value lookup — system UniProt:A0A3Q1MT31, readout pIC50, item Cn1c(N2CCC(C(=O)N3CCCc4ccccc43)CC2)nc(-c2ccncc2)cc1=O [D018]
8.37

Hi! What's the reported pIC50 for Cn1c(N2CCOC(c3ccc(F)c(F)c3)C2)nc(-c2ccncc2)cc1=O (stereo not drawn) [B257] on UniProt:A0A3Q1MT31?
7.17

Short answer please: pIC50, UniProt:A0A3Q1MT31, entry COc1ccc([C@H]2CN(c3nc(-c4ccncc4)cc(=O)n3C)CCO2)cc1 [B079]
8.48

Quick check: pIC50 on UniProt:A0A3Q1MT31, item COc1ccc(-c2cccc(CN3CCCC3)c2)cc1C1CN(c2nc(-c3ccncc3)cc(=O)n2C)CCO1 (stereo not drawn) [B287] ?
9.24

Hello, I am looking for reported pIC50 with UniProt:A0A3Q1MT31 for Cn1c(N2CCO[C@@H](c3c(F)cccc3F)C2)nc(-c2ccncc2)cc1=O [B110] . Could you help?
8.09

State its pIC50 on UniProt:A0A3Q1MT31: Cn1c(N2CCOC(c3ccc(OCC4CC4)cc3)C2)nc(-c2ccncc2)cc1=O (stereo not drawn) [B128]
7.52

All figures here come from patent US7427615B2.
